# Tested on: RPS6KA5(Kin.Dom.2-C-terminal)
# experimental_conditions: concentration: 1 μM, replicates: in singlicate; n = 1;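 also: KINOMEscan kinase panel screen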
We begin with a simple list: items and their reported %Inh.
Number in %, nothing else.

What the record says about Fc1ccc(-c2ncn(C3CCNCC3)c2-c2ccnc(Oc3ccc(-c4ccccc4)cc3)n2)cc1 [SB-245391] : %Inh is 6

Looking up `Cc1ccc(C(=O)N2CC[C@@H](O)C2)cc1-n1c(C)cc(OCc2ccc(F)cc2F)c(Br)c1=O` , I found its %Inh recorded as 0

Lookup result for `Cc1cccc(NC(=O)Nc2ccc(Oc3ncnc4ccn(C)c34)cc2)c1` ; measured %Inh: 0

Noted for Cc1ccc(S(=O)(=O)Nc2ccc(Nc3nccc(Nc4cccc5[nH]ncc45)n3)cc2)cc1 [GSK581271] : its %Inh reads 0

%Inh recorded for this compound, CNC(=O)c1ccccc1Nc1nc(Nc2ccc(N3CCOCC3)cc2)ncc1Cl.Cl [GSK1576028] , is 44

Consider COc1ccc(Nc2nccc(N3CCC(NC(=O)Nc4cccc(OC)c4)C3)n2)cc1 (stereo not drawn) [GSK1379742] . Its measured %Inh is 0

The recorded %Inh for CC(C)(C)c1ccc2nccc(Nc3cccc(O)c3)c2c1 [GW856795] is 0

In plain terms, Cc1cccc(Nc2nc(N[C@H]3CCNC3)ncc2C(N)=O)c1.Cl [GSK2197149] has a documented %Inh of 0

The compound listed as FC(F)(F)c1ccc(/C=C/c2cncnc2Nc2ccc3[nH]c(Cc4ccccc4)nc3c2)cc1 [GW709199] has a reported %Inh of 6

* * *

# Test system: FAK
# Construct: gene PTK2
# experimental_conditions: concentration: 1 μM, replicates: in singlicate; n = 1
Recorded %Inh, one value per entry.
Reply with just the number (in %).

Simply: `Cl.c1ccc(-c2ccc3c(Nc4ccc5[nH]ncc5c4)ccnc3c2)nc1` , FAK, %Inh = 0

`COc1cccc(-c2ccc3c(NC(=O)C4CC4)n[nH]c3n2)c1` tested on FAK gave %Inh: 0

Form field %Inh for item `CC(C)c1nc(-c2cccc(NS(=O)(=O)c3c(F)cccc3F)c2F)c(-c2ccnc(Nc3ccc(N4CCOCC4)nc3)n2)s1` on FAK: 32

Value (%Inh, FAK) for record `CCc1ccc(-c2ccc3c(c2)-c2c(cnn2C)S(=O)(=O)N3C)cc1` = 38

Reading of %Inh for `c1ccc(-c2n[nH]cc2Nc2ccnc3ccccc23)nc1` with FAK: 0

* * *

# Test system: ULK3
# experimental_conditions: concentration: 1 μM, replicates: in singlicate; n = 1
%Inh vs 9%: at or above is yes, below is no.

COC(=O)Nc1nc2cc(Oc3ccc(NC(=O)Nc4cc(C(F)(F)F)ccc4F)cn3)ccc2[nH]1.Cl.Cl: yes

Query :: Please tell me: is the compound NCCCC(NC(=O)c1cc(Br)c(-c2ccnc3[nH]ccc23)s1)c1ccccc1.O=C(O)C(F)(F)F.O=C(O)C(F)(F)F (centres unmarked) at or over 9% in terms of %Inh?
Result :: yes

Query :: Could you please find out whether `CCn1c(-c2nonc2N)nc2c(C#CC(C)(C)O)nc(OC[C@H](N)c3ccccc3)cc21` has %Inh that meets 9% or exceeds it?
Result :: no

* * *

# System: MARK4
# experimental_conditions: concentration: 1 μM, replicates: in singlicate; n = 1
property: %Inh (%)
Numbers only; they are read as %.

CCCCc1nn2ncccc2c1-c1ccnc(Nc2ccc(N3CCN(C)CC3)cc2)n1 [GW684941]: 0

Short answer for O=C(O)C(F)(F)F.O=C(O)C(F)(F)F.O=c1[nH]ccc2nc(N[C@@H]3CCCNC3)nc(Nc3ccc(S(=O)(=O)N4CCOCC4)cc3)c12 [GSK2177277] : %Inh was 97.1

Please fill in: %Inh reported for `Cc1cccc(NC(=O)Nc2ccc(Oc3ncnc4ccn(C)c34)cc2)c1` = 0

// field: %Inh; key: C[C@@H](Oc1cc(-n2cnc3cc(-c4ccnc(NCCS(C)(=O)=O)c4)ccc32)sc1C(N)=O)c1ccccc1Cl [GSK907232] ; value = 20

Quick note, %Inh for FC(F)(F)c1ccc(/C=C/c2cncnc2Nc2ccc3[nH]c(Cc4ccccc4)nc3c2)cc1 [GW709199] landed at 8

Numbers sourced from paper PMC5540273.
